Just a reminder that ties go to not met: only melting point strictly below 200 °C counts as met.

| SMILES_REPR | ASSIGNED_CATEGORY |
| --- | --- |
| CCc1nc2cc(OC)c(Cl)cn2c1C(=O)NCc1ccc(N2CCN(S(=O)(=O)C(F)(F)F)C=N2)cc1 | met |
| CCc1nc2ncc(Cl)cn2c1C(=O)NCc1ccc(N2CCN(S(=O)(=O)C(F)(F)F)C(OC)=N2)cc1 | met |
| CCc1nc2cc(OC)ccn2c1C(=O)NCc1ccc(N2CCN(S(=O)(=O)C(F)(F)F)C(OC)=N2)cc1 | met |
| CCc1nc2ccc(Cl)cn2c1C(=O)NCc1ccc(N2CCN(S(=O)(=O)C(F)(F)F)C(OC)=N2)c(F)c1 | met |
| CCc1nc2ccc(Cl)cn2c1C(=O)NCc1ccc(N2CCN(C(=O)C(F)(F)F)C=N2)cc1 | not met |
| CCc1nc2cc(OC)ccn2c1C(=O)NCc1ccc(N2CCN(S(=O)(=O)C(F)(F)F)C=N2)cc1 | met |
| CCc1nc2ncc(Cl)cn2c1C(=O)NCc1ccc(N2CCN(C(C)=O)C=N2)cc1 | not met |

====

Recorded IC50 by entry
Test system: Mycobacterium tuberculosis strain EH4.0 expressing green-fluorescent protein (GFP)
PROTOCOL_NOTES: microbe, parasite or virus in culture
Format: cell-based
CONDITION_CONTEXT: Test 1 (and/or Test 2), read-out: pIC50 (converted)

| COMPOUND | IC50 / nM |
| --- | --- |
| CCC1=NN(c2ncc(CNC(=O)c3c(C(F)(F)F)nc4ccccn34)cc2F)CCN1S(=O)(=O)C(F)(F)F [Compound 236] | 6.17 |
| CC1=NN(c2ncc(CNC(=O)c3c(C(F)(F)F)nc4ccccn34)cc2F)CCN1S(=O)(=O)C(F)(F)F [Compound 256] | 18.6 |
| CCc1nc2cc(C)c(C)cn2c1C(=O)NCc1ccc(N2CCN(S(=O)(=O)C(F)(F)F)C(C(C)C)=N2)c(F)c1 [Compound 241] | 3.47 |
| CCc1nc2ccc(Cl)cn2c1C(=O)NCc1ccc(N2CCN(S(=O)(=O)C(F)(F)F)C=N2)c(OC)c1 [Compound 25] | 10 |
| CCc1nc2ccc(C)cn2c1C(=O)NCc1ccc(N2CCN(S(=O)(=O)C(F)(F)F)C(C(=O)OC)=N2)cc1 [Compound 258] | 6.17 |
| CCc1nc2ncc(C)cn2c1C(=O)NCc1cnc(N2CCN(S(=O)(=O)C(F)(F)F)C(C)=N2)c(F)c1 [Compound 255] | 6.17 |
| CCc1nc2cc(C)c(C)cn2c1C(=O)NCc1ccc(N2CCN(S(=O)(=O)C(F)(F)F)C(C(C)C)=N2)cc1 [Compound 245] | 13.8 |

====

Reported chemical stability (% by LCMS), DMSO values for the following compounds.
Format: physicochemical
CONDITION_CONTEXT: 0 h, 30 μM

| SMILES_REPR | chemical stability (% by LCMS), DMSO |
| --- | --- |
| CCC1=NN(c2ccc(CNC(=O)c3c(C(F)(F)F)nc4ccccn34)cc2F)CCN1S(=O)(=O)C(F)(F)F | 99% |
| CCC1=NN(c2ccc(CNC(=O)c3c(CC)nc4ncc(C)cn34)cc2F)CCN1S(=O)(=O)C(F)(F)F | 96% |
| CCC1=NN(c2ncc(CNC(=O)c3c(CC)nc4ncc(C)cn34)cc2F)CCN1S(=O)(=O)C(F)(F)F | 99% |
| CCc1nc2ncc(C)cn2c1C(=O)NCc1ccc(N2CCN(S(=O)(=O)C(F)(F)F)C(C(C)C)=N2)c(F)c1 | 92% |
